Catalogue of binders with associated OD450 at 10 nM
biological target: T1, hPD-1-Fc (human, UniProt Q15116 25-167); test: ELISA, hPD1-Fc coated
T1 construct: domain: IgV domain; also called human PD-1-Fc; not shown: human IgG1 Fc
T1 sequence (Q15116 25-167 limits assumed): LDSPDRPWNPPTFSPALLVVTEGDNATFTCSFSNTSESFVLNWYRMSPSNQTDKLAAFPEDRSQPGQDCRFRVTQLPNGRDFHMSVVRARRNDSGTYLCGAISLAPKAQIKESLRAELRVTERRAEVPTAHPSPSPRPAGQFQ
Expressed in OD450, but write only the number.

>>> readout_number("33C4 (antibody, V domains shown, also called 780_39) VH: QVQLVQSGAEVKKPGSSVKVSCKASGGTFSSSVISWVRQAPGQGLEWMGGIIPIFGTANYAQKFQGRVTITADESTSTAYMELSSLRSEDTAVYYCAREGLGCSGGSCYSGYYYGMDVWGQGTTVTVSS VL: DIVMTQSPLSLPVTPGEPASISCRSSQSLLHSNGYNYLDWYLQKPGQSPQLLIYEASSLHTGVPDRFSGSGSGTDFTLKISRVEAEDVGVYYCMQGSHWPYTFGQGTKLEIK")
0.925
>>> readout_number("34C1 (antibody, V domains shown) VH: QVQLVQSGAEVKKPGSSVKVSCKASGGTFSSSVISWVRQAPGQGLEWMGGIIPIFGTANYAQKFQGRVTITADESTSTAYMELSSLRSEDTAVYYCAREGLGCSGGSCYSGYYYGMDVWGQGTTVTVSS VL: DIVMTQSPLSLPVTPGEPASISCRSSESLLYSNGNTYLDWYLQKPGQSPQLLIYEVSNRASGVPDRFSGSGSGTDFTLKISRVEAEDVGVYYCMQGTRWPYTFGQGTKVEIK")
0.926
>>> readout_number("31B1 (antibody, V domains shown, also called 780_38; 33B1 and 31B2 (apparent misprints)) VH: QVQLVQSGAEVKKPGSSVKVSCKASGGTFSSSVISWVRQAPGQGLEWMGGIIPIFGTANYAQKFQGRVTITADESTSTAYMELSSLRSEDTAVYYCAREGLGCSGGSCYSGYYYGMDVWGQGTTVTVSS VL: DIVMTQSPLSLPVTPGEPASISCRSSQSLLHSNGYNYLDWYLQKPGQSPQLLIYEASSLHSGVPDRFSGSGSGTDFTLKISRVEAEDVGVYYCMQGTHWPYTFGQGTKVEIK")
0.974

-- ask Given the binder 33G8 (antibody, V domains shown) VH: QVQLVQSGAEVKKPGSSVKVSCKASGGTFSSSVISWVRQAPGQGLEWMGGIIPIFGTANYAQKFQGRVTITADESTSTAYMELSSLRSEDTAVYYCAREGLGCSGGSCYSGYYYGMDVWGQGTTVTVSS VL: DIVMTQSPLSLPVTPGEPASISCRSSQSLLHSNGYNYLDWYLQKPGQSPQLLIYQASTLGSGVPDRFSGSGSGTDFTLKISRVEAEDVGVYYCMQGTHWPYTFGQGTKLEIK , what is its reported OD450 at 10 nM?
-- reply 0.9
